# EXPERIMENTAL_PROTOCOL: Drug excretion in Wistar rat feces at 750 mg/kg, po after up to 72 hrs by HPLC-UV analysis
# Assay type: ADME, organism-based
# Design: dose 750 mg/kg, route oral
# MEASUREMENT_CONDITIONS: faeces, read-out: Drug excretion
PROPERTY_MEASURED: dose excreted at 72 h (%)

1: COc1cc(OC)c2c(=O)c(OC)c(-c3ccc(OC)c(OC)c3)oc2c1
2: COc1ccc(-c2cc(=O)c3c(OC)cc(OC)cc3o2)cc1 [TRIMETHYLAPIGENIN]
Prompt line: In the pair 1 and 2 , the larger recorded dose excreted at 72 h belongs to which? State the label of the item chosen.
Response line: 2
(2: 1.76%, 1: 0.79%)

Data origin, for the record: ChEMBL document CHEMBL3526121
